test: yeast display, Sf9 membrane polyspecificity reagent, FACS + sequencing; frameworks hold sequencing errors
reported.endpoint: polyreactivity (PSR sort gate)

| item.sequence | reported.endpoint | measurement |
| --- | --- | --- |
| QFQLVESGGGLVQARGSLRLSCAPSGSTFGYYTMGWYRQAPGKERELVAAISWSGGSTYYADSVKGRFTISRDNAKNTVYLQMNSLKPEDTAVYYCAALGYTYKYYSYYWGQGTQVTVSS | polyreactivity (PSR sort gate) | high polyreactivity |
| QVQLVESGGGLVKAGGSLRLSCAASGGTFNRNAMGWYRQAPAKERELVAAICSSGGRTYYADSVKGRFTISRDNAKNTVYLQMNSLKPEDTAGYYCAAGRKGHGGAYDSWGQGTQVTVSS | polyreactivity (PSR sort gate) | high polyreactivity |
| QVQLVESGGGLVQAGGSLRLSCAASGSILYANAMGWYRQAPGKERELVAAISARGTSTYYADSVKGRFTISRDNAKNTVYLQMNSLKPEDTAVYYCATGRKNAAQRWGYYYWGQGTQVTVSS | polyreactivity (PSR sort gate) | high polyreactivity |
| QVQLVESGGGLVQAGGSLRLSCAASGRTIQYYAMGWYRQAPGKERELVAAITRSGGRTYYADSVKGRFTISRDNAKNTVYLQMNSLKPEDTAVYYCARVSSSVHVDYDYWGQGTQVTVSS | polyreactivity (PSR sort gate) | high polyreactivity |

Reference source for all entries: the nanobody polyreactivity screen of Harvey et al. (2022)
